All values here come from ChEMBL document CHEMBL1148731.

# testTarget: UniProtKB Q9UQB9
# method: Inhibition of human recombinant aurora C kinase
measuredEndpoint: IC50 (nM)

Guide cases for IC50, answers given:
>>> reported("CC(=O)O/N=C1\\C(c2c(O)[nH]c3ccccc23)=Nc2ccccc21")
700
>>> reported("CC(=O)O/N=C1\\C(=C2\\C(=O)Nc3c(F)cccc32)Nc2ccccc21")
1000
>>> reported("O=Nc1c(-c2c(O)[nH]c3c(Br)cccc23)[nH]c2ccccc12")
700

a. O=Nc1c(-c2c(O)[nH]c3c(Cl)cccc23)[nH]c2ccccc12
b. CC(=O)O/N=C1\C(=C2\C(=O)Nc3c(Br)cccc32)Nc2ccccc21
Which value of IC50 is greater, the one for a or the one for b ? Please respond with the label that marks your chosen entry.
b

----------
# testTarget: Aurora kinase C (Homo sapiens)
# Sequence (Q9UQB9 whole entry): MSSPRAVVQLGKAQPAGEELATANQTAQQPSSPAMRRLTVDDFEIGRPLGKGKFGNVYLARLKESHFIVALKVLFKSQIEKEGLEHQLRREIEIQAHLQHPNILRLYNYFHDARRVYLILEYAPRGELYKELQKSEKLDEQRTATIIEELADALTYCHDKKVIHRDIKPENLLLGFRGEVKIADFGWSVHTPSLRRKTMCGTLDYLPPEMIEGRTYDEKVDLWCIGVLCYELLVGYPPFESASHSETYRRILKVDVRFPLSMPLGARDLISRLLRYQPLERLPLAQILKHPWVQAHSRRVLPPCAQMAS
# method: Inhibition of human recombinant aurora C kinase
pIC50: −log10 of the molar value.
measuredEndpoint: pIC50

>>> reported("O=Nc1c(-c2c(O)[nH]c3ccccc23)[nH]c2ccccc12 [INDIRUBIN-3-MONOXIME]")
6.52
>>> reported("CO/N=C1\\C(c2c(O)[nH]c3ccccc23)=Nc2ccccc21")
6.40

A. O=C1Nc2cc(Br)ccc2/C1=C1/Nc2ccccc2/C1=N\O [6BIO]
B. O=Nc1c(-c2c(O)[nH]c3c(F)cccc23)[nH]c2ccccc12
Which value of pIC50 is greater, the one for A or the one for B ? Please respond with the label that marks your chosen entry.
A
(A: 6.70, B: 6.00)

I. CC(=O)O/N=C1\C(=C2\C(=O)Nc3c(I)cccc32)Nc2ccccc21
II. O=Nc1c(-c2c(O)[nH]c3c(I)cccc23)[nH]c2ccccc12
Which value of pIC50 is greater, the one for I or the one for II ? Please respond with the label that marks your chosen entry.
II
(II: 6.22, I: 4.55)

----------
# testTarget: Aurora kinase B (Homo sapiens, UniProt Q96GD4)
# Sequence (Q96GD4 whole entry): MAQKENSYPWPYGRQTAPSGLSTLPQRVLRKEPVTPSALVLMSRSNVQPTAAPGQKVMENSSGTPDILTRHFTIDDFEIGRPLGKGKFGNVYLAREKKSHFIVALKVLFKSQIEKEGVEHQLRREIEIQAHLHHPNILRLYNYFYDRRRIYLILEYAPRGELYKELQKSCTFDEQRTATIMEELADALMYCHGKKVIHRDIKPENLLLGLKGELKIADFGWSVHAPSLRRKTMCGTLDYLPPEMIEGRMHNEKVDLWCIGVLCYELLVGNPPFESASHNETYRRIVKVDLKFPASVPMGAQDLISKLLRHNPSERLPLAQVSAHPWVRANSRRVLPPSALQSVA
# method: Inhibition of human recombinant aurora B kinase
pIC50: −log10 of the molar value.
measuredEndpoint: pIC50

I. CC(=O)O/N=C1\C(=C2\C(=O)Nc3c(F)cccc32)Nc2ccccc21
II. CO/N=C1\C(c2c(O)[nH]c3ccccc23)=Nc2ccccc21
// which entry reports the smaller pIC50, I or II ? Please respond with the label that marks your chosen entry.
I

I. CC(=O)O/N=C1\C(=C2\C(=O)Nc3c(Br)cccc32)Nc2ccccc21
II. O=Nc1c(-c2c(O)[nH]c3c(F)cccc23)[nH]c2ccccc12
III. O=Nc1c(-c2c(O)[nH]c3ccccc23)[nH]c2ccccc12
Please put the entries in order of rising pIC50. Submit the labels in the order that the ranking request calls for.
I, II, III

----------
# testTarget: Aurora kinase A (Homo sapiens, UniProt O14965)
# Sequence (O14965 whole entry): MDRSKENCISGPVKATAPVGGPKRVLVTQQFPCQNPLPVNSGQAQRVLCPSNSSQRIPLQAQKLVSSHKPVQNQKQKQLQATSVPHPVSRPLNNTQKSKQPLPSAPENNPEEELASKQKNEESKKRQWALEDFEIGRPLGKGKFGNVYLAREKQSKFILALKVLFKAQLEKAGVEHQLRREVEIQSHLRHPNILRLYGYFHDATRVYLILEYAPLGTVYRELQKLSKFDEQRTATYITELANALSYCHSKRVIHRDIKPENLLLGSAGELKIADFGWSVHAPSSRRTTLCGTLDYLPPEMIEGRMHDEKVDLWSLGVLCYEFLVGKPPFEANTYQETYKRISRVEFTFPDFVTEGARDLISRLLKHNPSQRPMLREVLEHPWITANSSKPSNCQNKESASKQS
# method: Inhibition of human recombinant aurora A kinase
measuredEndpoint: IC50

Guide cases for IC50, answers given:
>>> reported("O=C1C(c2c(O)[nH]c3c(F)cccc23)=Nc2ccccc21")
"> 100 µM"
>>> reported("O=Nc1c(-c2c(O)[nH]c3c(I)cccc23)[nH]c2ccccc12")
"> 100 µM"
>>> reported("CO/N=C1\\C(c2c(O)[nH]c3ccccc23)=Nc2ccccc21")
"4.3 µM"
>>> reported("O=C1C(c2c(O)[nH]c3c(I)cccc23)=Nc2ccccc21")
"> 100 µM"
>>> reported("O=Nc1c(-c2c(O)[nH]c3c(Cl)cccc23)[nH]c2ccccc12")
"> 100 µM"

For CO/N=C1\C(=C2\C(=O)Nc3c(Cl)cccc32)Nc2ccccc21 , write its IC50.
> 100 µM

For CO/N=C1\C(=C2\C(=O)Nc3c(I)cccc32)Nc2ccccc21 , write its IC50.
> 100 µM
